Let's look at some binders and their measured koff.
Target: T1, Human OX40 protein (hOX40-His) (human, UniProt P43489 29-214)
T1 construct: Soluble analyte in the SPR assay; also called His-tagged human OX40; not shown: His tag
T1 sequence: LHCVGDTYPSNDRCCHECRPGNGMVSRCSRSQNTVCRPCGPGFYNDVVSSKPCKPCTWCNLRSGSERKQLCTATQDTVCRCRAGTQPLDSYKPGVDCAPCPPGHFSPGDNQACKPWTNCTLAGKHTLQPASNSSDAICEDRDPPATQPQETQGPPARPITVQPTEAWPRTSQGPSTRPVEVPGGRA
Experiment: SPR, Biacore T200, antibody captured on Protein A chip, hOX40-His as analyte, 1:1 Langmuir fit
property.label: koff (s⁻¹)

{"columns": ["binder", "recorded.result"],
 "data": [
  ["9H3-H2K1-IgG1 (antibody, V domains shown, Humanized, with human IgG1 constant domains (CL, CH1, CH2, CH3); also called 9H3 humanized antibody H2K1) VH: QVQLVESGGGVVQPGRSLRISCAVSGFSLTSYGVLWVRQAPGKGLEWVAVIWSGGSTDYNAAFISRLTISRDNSKSTVYFQMNSLRAEDTAVYYCAREEFGYWGQGTLVTVSS VL: DIQMTQSPSSLSASVGDRVTITCRASQDINNYLNWYQQKPGGAVKLLIYYTSRLHTGVPSRFSGSGSGTDFTLTISSLQPEDIATYYCQQTNTLPWTFGGGTKLEVKR", 0.000748],
  ["9H3-H3K2-IgG1 (antibody, V domains shown, Humanized, with human IgG1 constant domains; also called 9H3 humanized antibody H3K2) VH: QVQLVESGGGVVQPGRSLRISCAVSGFSLTSYGVLWVRQAPGKGLEWLGVIWSGGSTDYNAAFISRLTISRDNSKSTVYFQMNSLRAEDTAVYYCAREEFGYWGQGTLVTVSS VL: DIQMTQSPSSLSASVGDRVTITCRASQDINNYLNWYQQKPGGAVKLLIYYTSRLHSGVPSRFSGSGSGTDFTLTISSLQPEDIATYYCQQTNTLPWTFGGGTKLEIKR", 0.000642],
  ["9H3-mHvKv-IgG1 (antibody, V domains shown, Chimeric: mouse 9H3 variable domains with human IgG1 constant domains (CL, CH1, CH2, CH3); also called 9H3 chimeric antibody; chimeric anti-hOX40 antibody) VH: QVQLKQSGPGLVQPSQSLSITCTVSGFSLTSYGVLWVRQPPGKGLEWLGVIWSGGSTDYNAAFISRLSISKDNSKSQVFFKMNSLQADDTAIYYCAREEFGYWGQGTLVTVSA VL: DIQMTQTTSSLSASLGDRVTISCRASQDINNYLNWYQQKPDGTVKLLIYYTSRLHSGVPSRFSGSGSGTDYSLTISNLEQEDIATYFCQQTNTLPWTFGGGTKLEIK", 0.000594]
]}

Reference for the values: patent US20210206866A1
